System: Mycobacterium tuberculosis
Assay: Antimycobacterial activity against XDR clinical isolate Mycobacterium tuberculosis 9449/2007 assessed as inhibition of mycobacterial growth measured after 14 to 21 days of incubation by Sulas semisynthetic medium based assay
Assay type: functional
Settings: time 14-21 day
Measurement label: MIC99 (µM)
The answer is to be given in µM; state only the numeric part.

c1ccc2cc(Cn3cnc4nc(N5CCOCC5)nc(NC5CCC5)c43)ccc2c1	8
CCNc1nc(N2CCOCC2)nc2ncn(Cc3ccc4ccccc4c3)c12	4
CCOc1nc(N2CCOCC2)nc2ncn(Cc3ccc4ccccc4c3)c12	4

Any idea what MIC99 was measured for `O=c1[nH]c(N2CCSCC2)nc2ncn(Cc3ccc4ccccc4c3)c12` ?
16

For the compound shown here, `O=c1[nH]c(N2CCCCC2)nc2ncn(Cc3ccc4ccccc4c3)c12` , give the reported MIC99.
16

---

System: Staphylococcus aureus
Assay: Antibacterial activity against methicilin-resistant Staphylococcus aureus C1923 assessed as inhibition of bacterial growth incubated for 24 to 48 hrs by microdilution broth method
Assay type: functional, organism-based
Settings: time 24-48 hrs
Active and inactive are the calls of the source. The calls are words filed in the database; no cut-off is given here.
Bench note: report the call from 1.0 for active, 0.0 for inactive

Worked cases, answers included:
CCOc1nc(N2CCOCC2)nc2ncn(Cc3ccc4ccccc4c3)c12	0.0
O=c1[nH]c(N2CCOCC2)nc2ncn(Cc3ccc(Cl)c(Cl)c3)c12	0.0
O=c1[nH]c(N2CCCCC2)nc2ncn(Cc3ccc4ccccc4c3)c12	0.0
CNc1nc(N2CCOCC2)nc2ncn(Cc3ccc4ccccc4c3)c12	0.0
CN(c1nc2ncn(Cc3ccc4ccccc4c3)c2c(=O)[nH]1)C1CC1	0.0

Short answer needed: outcome of this test for `CCNc1nc(N2CCOCC2)nc2ncn(Cc3ccc4ccccc4n3)c12` ?
0.0

What classification did `c1ccc2cc(Cn3cnc4nc(N5CCOCC5)nc(NC5CCCCC5)c43)ccc2c1` end up with in this test?
0.0

Field: outcome | Entry: `CCCNc1nc(N2CCOCC2)nc2ncn(Cc3ccc4ccccc4c3)c12`
0.0

Call for entry `CCN(CC)c1nc2ncn(Cc3ccc4ccccc4c3)c2c(=O)[nH]1` :
0.0

Fill in: this test's call for `O=c1[nH]c(N2CCOCC2)nc2ncn(Cc3ccc4ccccc4c3)c12` is ___
0.0

Status in this test for `Clc1nc(N2CCOCC2)nc2ncn(Cc3ccc4ccccc4c3)c12` ?
0.0

// return assay outcome for `CC(C)c1ccc(Cn2cnc3nc(N4CCOCC4)[nH]c(=O)c32)cc1`
0.0

---

Test: Half life in human liver microsomes at 3 uM incubated for 5 to 45 min in presence of NADPH by LC-MS analysis
Assay type: ADME, Microsome
Conditions: time 5-45 min
Criterion: half-life at 3 µM strictly less than 60 min. Met: yes (1). Not met: no (0).

Examples with answers:
O=c1[nH]c(N2CCSCC2)nc2ncn(Cc3ccc4ccccc4c3)c12	yes (1)
Nc1nc(N2CCOCC2)nc2ncn(Cc3ccc4ccccc4c3)c12	no (0)
CCOc1nc(N2CCOCC2)nc2ncn(Cc3ccc4ccccc4c3)c12	yes (1)

Record `c1ccc2cc(Cn3cnc4nc(N5CCOCC5)nc(NC5CCC5)c43)ccc2c1` : is its half-life at 3 µM strictly below 60 min?
yes (1)

Lab note: half-life at 3 µM threshold 60 min. Does this molecule come in strictly under it? `O=c1[nH]c(N2CCCCC2)nc2ncn(Cc3ccc4ccccc4c3)c12`
yes (1)
